- experimental-system: T1, human MerTK (human, UniProt Q12866 26-499)
- T1 construct: also called HuMER
- T1 sequence: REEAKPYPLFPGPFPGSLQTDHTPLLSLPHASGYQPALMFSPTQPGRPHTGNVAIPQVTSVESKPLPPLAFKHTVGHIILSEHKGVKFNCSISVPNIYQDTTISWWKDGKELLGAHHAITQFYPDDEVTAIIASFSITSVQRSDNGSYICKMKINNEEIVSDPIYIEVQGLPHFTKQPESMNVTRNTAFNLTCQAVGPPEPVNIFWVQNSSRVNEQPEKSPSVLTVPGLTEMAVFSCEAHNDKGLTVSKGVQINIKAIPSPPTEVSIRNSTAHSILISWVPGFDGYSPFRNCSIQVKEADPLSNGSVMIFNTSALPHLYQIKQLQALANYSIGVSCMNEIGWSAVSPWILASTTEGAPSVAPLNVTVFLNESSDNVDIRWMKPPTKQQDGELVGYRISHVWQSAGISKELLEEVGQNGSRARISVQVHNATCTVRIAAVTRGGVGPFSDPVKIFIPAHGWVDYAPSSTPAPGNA
- protocol-text: SPR BIAcore T200, Ab captured, 37C
pKd: −log10 of the molar value.
Decision: pKd compared against 8; not below it gives condition met, below it gives condition not met.

Given h10C3.V1 HC K71R (antibody, human IgG1, name in Kabat numbering, V domains shown, Framework variant of h10C3.v1 (human IgG1)) VH: EQQLVESGGGLVQPGGSLRLSCAASGFSLSGYTMGWVRQAPGKGLEYIGVISSGGTTYYTNWAKGRFTISRDSSKNTVYLQMGSLRAEDMAVYFCARVAFTAYGGGGFPTLHRLDLWGQGTLVTVSS VL: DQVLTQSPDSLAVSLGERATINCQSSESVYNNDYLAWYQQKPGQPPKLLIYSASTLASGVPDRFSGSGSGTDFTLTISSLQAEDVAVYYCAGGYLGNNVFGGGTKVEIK , state whether its pKd is at least 8. condition not met

What do we get for h13B4.V1 HC I48V (antibody, human IgG1, name in Kabat numbering, V domains shown, Framework variant of h13B4.v1 (human IgG1)) VH: EQQLVESGEGLVQPGGSLRLSCAVSGFSLSSYAMGWVRQAPGKGLEWVGIINSYGNTYYANWAKGRFTISRDSSKNTVYLQMGSLRAEDMAVYFCARDPGVSSNLWGPGTLVTVSS VL: DVQMTQSPSTLSASVGDRVTITCQASQNIYSGLAWYQQKPGKPPKLLIYGASKLASGVPSRFSGSGSGTEFTLTISSLQPDDFATYYCQATYYSSNSVAFGGGTKVEIK ? condition met

What do we get for h13B4.V1 LC V21 (antibody, human IgG1, V domains shown, Framework variant of h13B4.v1 (human IgG1); read as V2I (V at VL position 2 in v1, I in v16); also called LC V2I) VH: EQQLVESGEGLVQPGGSLRLSCAVSGFSLSSYAMGWVRQAPGKGLEWIGIINSYGNTYYANWAKGRFTISRDSSKNTVYLQMGSLRAEDMAVYFCARDPGVSSNLWGPGTLVTVSS VL: DIQMTQSPSTLSASVGDRVTITCQASQNIYSGLAWYQQKPGKPPKLLIYGASKLASGVPSRFSGSGSGTEFTLTISSLQPDDFATYYCQATYYSSNSVAFGGGTKVEIK ? condition met
